# condition_parameters: in n-pentyl acetate, 318.15 K
result_type: solubility (mole fraction)
Lab note: jot the number down without any unit.

IN: What value of solubility (mole fraction) has been reported for the following compound? `COc1ccc2cccc(CCNC(C)=O)c2c1`
OUT: 0.0397

----------
# condition_parameters: in ethyl acetate, 298.15 K
result_type: solubility (mole fraction)
Lab note: jot down the number only; don't add units.

IN: I am curious: what solubility (mole fraction) value has been reported for `COc1ccc2cccc(CCNC(C)=O)c2c1` ?
OUT: 0.0263

----------
# condition_parameters: in methanol, 303.15 K
result_type: solubility (mole fraction)

IN: What value of solubility (mole fraction) has been reported for the following compound? `COc1ccc2cccc(CCNC(C)=O)c2c1`
OUT: 0.0752

----------
# condition_parameters: in n-propyl acetate, 303.15 K
result_type: solubility (mole fraction)
Lab note: jot the number down without any unit.

IN: Would you mind telling me what solubility (mole fraction) value was observed for `COc1ccc2cccc(CCNC(C)=O)c2c1` ?
OUT: 0.0255

----------
# condition_parameters: in methanol, 308.15 K
result_type: solubility (mole fraction)
Please give the numeric answer without any surrounding text.

IN: Record request: solubility (mole fraction) value, item `COc1ccc2cccc(CCNC(C)=O)c2c1`
OUT: 0.101

----------
# condition_parameters: in water, 298.15 K
result_type: solubility (mole fraction)
Write no unit; give the number alone.

IN: Value lookup for solubility (mole fraction); key = `COc1ccc2cccc(CCNC(C)=O)c2c1`
OUT: 0.000119

----------
# condition_parameters: in n-propyl acetate, 288.15 K
result_type: solubility (mole fraction)
Enter a number only.

IN: Name the recorded solubility (mole fraction) for `COc1ccc2cccc(CCNC(C)=O)c2c1` .
OUT: 0.00886

----------
# condition_parameters: in water, 283.15 K
result_type: solubility (mole fraction)
// no unit, no text: just the number

IN: Which solubility (mole fraction) value belongs to `COc1ccc2cccc(CCNC(C)=O)c2c1` ?
OUT: 2.9e-05

----------
# condition_parameters: in n-pentyl acetate, 308.15 K
result_type: solubility (mole fraction)
No unit in the answer, please; the number alone is enough.

IN: What value of solubility (mole fraction) has been reported for the following compound? `COc1ccc2cccc(CCNC(C)=O)c2c1`
OUT: 0.021

----------
# condition_parameters: in n-butyl acetate, 303.15 K
result_type: solubility (mole fraction)
# answer = number (no unit)

IN: Need solubility (mole fraction), item `COc1ccc2cccc(CCNC(C)=O)c2c1`
OUT: 0.0207

----------
# condition_parameters: in n-butyl acetate, 298.15 K
result_type: solubility (mole fraction)
Respond with the number and no other words.

IN: Look at this molecule and give its reported solubility (mole fraction). `COc1ccc2cccc(CCNC(C)=O)c2c1`
OUT: 0.0134

----------
# condition_parameters: in n-propyl acetate, 298.15 K
result_type: solubility (mole fraction)

IN: What does the record list as solubility (mole fraction) for `COc1ccc2cccc(CCNC(C)=O)c2c1` ?
OUT: 0.018

----------
# condition_parameters: in n-pentyl acetate, 283.15 K
result_type: solubility (mole fraction)
Form field (numeric): enter value without unit.

IN: Item `COc1ccc2cccc(CCNC(C)=O)c2c1` has what recorded solubility (mole fraction)?
OUT: 0.00281

----------
# condition_parameters: in water, 318.15 K
result_type: solubility (mole fraction)
Lab note: record the figure alone, no unit after it.

IN: Name the reported solubility (mole fraction) value associated with the compound `COc1ccc2cccc(CCNC(C)=O)c2c1`
OUT: 0.000551

----------
# condition_parameters: in ethanol, 318.15 K
result_type: solubility (mole fraction)

IN: Look up solubility (mole fraction): `COc1ccc2cccc(CCNC(C)=O)c2c1`
OUT: 0.144

----------
# condition_parameters: in n-butanol, 318.15 K
result_type: solubility (mole fraction)

IN: # query: solubility (mole fraction) of entry `COc1ccc2cccc(CCNC(C)=O)c2c1`
OUT: 0.107

----------
# condition_parameters: in n-butyl acetate, 293.15 K
result_type: solubility (mole fraction)
Output spec: single numeric token, no unit.

IN: Quick one: solubility (mole fraction) for `COc1ccc2cccc(CCNC(C)=O)c2c1` ?
OUT: 0.00944

----------
# condition_parameters: in n-propanol, 283.15 K
result_type: solubility (mole fraction)
When you answer, write just the number.

IN: State the recorded solubility (mole fraction) for this entry: `COc1ccc2cccc(CCNC(C)=O)c2c1`
OUT: 0.016

----------
# condition_parameters: in methanol, 313.15 K
result_type: solubility (mole fraction)
Simply state the number, no unit and no words.

IN: Look up solubility (mole fraction): `COc1ccc2cccc(CCNC(C)=O)c2c1`
OUT: 0.147

----------
# condition_parameters: in water, 308.15 K
result_type: solubility (mole fraction)
# answer = number (no unit)

IN: Bench note: what solubility (mole fraction) did `COc1ccc2cccc(CCNC(C)=O)c2c1` show?
OUT: 0.000248

----------
# condition_parameters: in ethanol, 313.15 K
result_type: solubility (mole fraction)
Output: the number by itself.

IN: Quick one: solubility (mole fraction) for `COc1ccc2cccc(CCNC(C)=O)c2c1` ?
OUT: 0.109

----------
# condition_parameters: in n-pentyl acetate, 278.15 K
result_type: solubility (mole fraction)

IN: I'd like to know its solubility (mole fraction). The compound in question is `COc1ccc2cccc(CCNC(C)=O)c2c1`
OUT: 0.00181

----------
# condition_parameters: in n-butyl acetate, 283.15 K
result_type: solubility (mole fraction)
Give your answer as a number; write no unit.

IN: Look at this compound and give its reported solubility (mole fraction). `COc1ccc2cccc(CCNC(C)=O)c2c1`
OUT: 0.00474

----------
# condition_parameters: in ethyl acetate, 308.15 K
result_type: solubility (mole fraction)
Answer with a number only.

IN: Given the entry `COc1ccc2cccc(CCNC(C)=O)c2c1` , report its measured solubility (mole fraction).
OUT: 0.0454

----------
# condition_parameters: in n-butanol, 308.15 K
result_type: solubility (mole fraction)
Form: value (number only, do not type unit).

IN: solubility (mole fraction) lookup needed for `COc1ccc2cccc(CCNC(C)=O)c2c1` , thanks.
OUT: 0.06

----------
# condition_parameters: in n-propanol, 303.15 K
result_type: solubility (mole fraction)
// print number alone

IN: Name the recorded solubility (mole fraction) for `COc1ccc2cccc(CCNC(C)=O)c2c1` .
OUT: 0.0484

----------
# condition_parameters: in ethanol, 283.15 K
result_type: solubility (mole fraction)
Number, no unit, nothing else.

IN: Which solubility (mole fraction) is reported for this compound? `COc1ccc2cccc(CCNC(C)=O)c2c1`
OUT: 0.0169

----------
# condition_parameters: in ethanol, 303.15 K
result_type: solubility (mole fraction)
Write no unit; give the number alone.

IN: I have this compound here, `COc1ccc2cccc(CCNC(C)=O)c2c1` , and I need its recorded solubility (mole fraction).
OUT: 0.0542

----------
# condition_parameters: in ethyl acetate, 283.15 K
result_type: solubility (mole fraction)
When you answer, write just the number.

IN: Need solubility (mole fraction), item `COc1ccc2cccc(CCNC(C)=O)c2c1`
OUT: 0.00934

----------
# condition_parameters: in n-pentyl acetate, 313.15 K
result_type: solubility (mole fraction)
API note: the answer field is a bare number with no unit suffix.

IN: Any idea what solubility (mole fraction) was measured for `COc1ccc2cccc(CCNC(C)=O)c2c1` ?
OUT: 0.0294

----------
# condition_parameters: in n-butanol, 313.15 K
result_type: solubility (mole fraction)
API doc: respond with a numeric literal and nothing else, no unit.

IN: I have this compound here, `COc1ccc2cccc(CCNC(C)=O)c2c1` , and I need its recorded solubility (mole fraction).
OUT: 0.0802

----------
# condition_parameters: in n-propanol, 318.15 K
result_type: solubility (mole fraction)
Just the number, please, no unit after it.

IN: Name the recorded solubility (mole fraction) for `COc1ccc2cccc(CCNC(C)=O)c2c1` .
OUT: 0.115

----------
# condition_parameters: in ethyl acetate, 288.15 K
result_type: solubility (mole fraction)
No unit in the answer, please; the number alone is enough.

IN: Need solubility (mole fraction), item `COc1ccc2cccc(CCNC(C)=O)c2c1`
OUT: 0.0131

----------
# condition_parameters: in methanol, 288.15 K
result_type: solubility (mole fraction)
Write the value as a bare number.

IN: Quick one: solubility (mole fraction) for `COc1ccc2cccc(CCNC(C)=O)c2c1` ?
OUT: 0.0347

----------
# condition_parameters: in isopropanol, 293.15 K
result_type: solubility (mole fraction)
Would you mind answering with just the numeric figure?

IN: Request the reported solubility (mole fraction) associated with `COc1ccc2cccc(CCNC(C)=O)c2c1`
OUT: 0.0256

----------
# condition_parameters: in n-propanol, 298.15 K
result_type: solubility (mole fraction)
Output spec: single numeric token, no unit.

IN: GET /values?readout=solubility (mole fraction)&item= `COc1ccc2cccc(CCNC(C)=O)c2c1`
OUT: 0.0402
